Test system: 624824-186-R-J2-PDC multicell spheroids, viability
ASSAY_SUMMARY: Anticancer human tumor 624824-186-R-J2-PDC patient-derived colon adenocarcinoma cell line growth inhibition [PI3K]
CONDITION_SUMMARY: second compound 3.16 µM; first compound 0.316 µM; active compounds read low
MEASURED_METRIC: viability, T/C (%)
Numbers only; they are read as %.

C[C@@H](NC(=O)c1ncnc(N)c1Cl)c1ncc(C(=O)Nc2cc(C(F)(F)F)c(Cl)cn2)s1 + Cc1nc(NC(=O)N2CCCC2C(N)=O)sc1-c1ccnc(C(C)(C)C(F)(F)F)c1    88.8
CNC(=O)c1ccc(N2C(=S)N(c3ccc(C#N)c(C(F)(F)F)c3)C(=O)C2(C)C)cc1F + CC(Nc1ncnc2nc[nH]c12)c1cc2cccc(Cl)c2c(=O)n1-c1ccccc1    91.1
C#Cc1c(F)ccc2cc(O)cc(-c3ncc4c(N5CC6CCC(C5)N6)nc(OCC56CCCN5CC(F)C6)nc4c3F)c12 (stereo not drawn) + CC(Nc1ncnc2nc[nH]c12)c1cc2cccc(Cl)c2c(=O)n1-c1ccccc1    74.7
C#Cc1c(F)ccc2cc(O)cc(-c3ncc4c(N5CC6CCC(C5)N6)nc(OCC56CCCN5CC(F)C6)nc4c3F)c12 (stereo not drawn) + Cc1nc(NC(=O)N2CCCC2C(N)=O)sc1-c1ccnc(C(C)(C)C(F)(F)F)c1    69.5
CCN1CCN(Cc2ccc(Nc3ncc(F)c(-c4cc(F)c5nc(C)n(C(C)C)c5c4)n3)nc2)CC1 + Cc1nc(NC(=O)N2CCCC2C(N)=O)sc1-c1ccnc(C(C)(C)C(F)(F)F)c1    79.4

Looking up C=CC(=O)N1CCN(c2nc(=O)n(-c3c(C)ccnc3C(C)C)c3nc(-c4c(O)cccc4F)c(F)cc23)C(C)C1 (stereo not drawn) + Cc1nc(NC(=O)N2CCCC2C(N)=O)sc1-c1ccnc(C(C)(C)C(F)(F)F)c1 , I found its viability, T/C recorded as 92

Lab book: viability, T/C of CC1(C)CCC(CN2CCN(c3ccc(C(=O)NS(=O)(=O)c4ccc(NCC5CCOCC5)c([N+](=O)[O-])c4)c(Oc4cnc5[nH]ccc5c4)c3)CC2)=C(c2ccc(Cl)cc2)C1 + Cc1nc(NC(=O)N2CCCC2C(N)=O)sc1-c1ccnc(C(C)(C)C(F)(F)F)c1 noted as 80.3

Entry CCN1CCN(Cc2ccc(Nc3ncc(F)c(-c4cc(F)c5nc(C)n(C(C)C)c5c4)n3)nc2)CC1 + CC(Nc1ncnc2nc[nH]c12)c1cc2cccc(Cl)c2c(=O)n1-c1ccccc1 , viability, T/C reported as 111

Consider CCCS(=O)(=O)Nc1ccc(F)c(C(=O)c2c[nH]c3ncc(-c4ccc(Cl)cc4)cc23)c1F + Cc1nc(NC(=O)N2CCCC2C(N)=O)sc1-c1ccnc(C(C)(C)C(F)(F)F)c1 . Its measured viability, T/C is 56.4

* * *

Tested on: 624824-186-R-J2-PDC multicell spheroids, viability
ASSAY_SUMMARY: Anticancer human tumor 624824-186-R-J2-PDC cell line growth inhibition [PI3K];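 further: spheroids exposed to agents for 7 days before viability read; 100% = DMSO vehicle treated spheroids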
CONDITION_SUMMARY: second compound 0.01 µM; first compound 0.316 µM; active compounds read low
MEASURED_METRIC: viability, T/C (%)
Numbers only here, please. The scale is %.

CCN1CCN(Cc2ccc(Nc3ncc(F)c(-c4cc(F)c5nc(C)n(C(C)C)c5c4)n3)nc2)CC1 + COc1c(OCCCN2CCOCC2)ccc2c3n(c(=NC(=O)c4cnc(N)nc4)nc12)CCN3    81.7
CC1(C)CCC(Nc2ncc(C(F)(F)F)c(-c3c[nH]c4c(P(C)(C)=O)c(C#N)ccc34)n2)CN1 (stereo not drawn) + COc1c(OCCCN2CCOCC2)ccc2c3n(c(=NC(=O)c4cnc(N)nc4)nc12)CCN3    94.8

The reported viability, T/C of the molecule C#Cc1c(F)ccc2cc(O)cc(-c3ncc4c(N5CC6CCC(C5)N6)nc(OCC56CCCN5CC(F)C6)nc4c3F)c12 (stereo not drawn) + CC(Nc1ccc2c(c1)OCCn1cc(N3C(=O)OCC3C(F)F)nc1-2)C(N)=O was 82.6

* * *

Attribute: viability, T/C
Test system: 624824-186-R-J2-PDC multicell spheroids, viability
ASSAY_SUMMARY: Anticancer human tumor 624824-186-R-J2-PDC cell line growth inhibition [PI3K];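 further: spheroids exposed to agents for 7 days before viability read; 100% = DMSO vehicle treated spheroids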
CONDITION_SUMMARY: second compound 0.1 µM; first compound 0.316 µM; active compounds read low
Description: Combinatorial screen of targeted agents with the PI3K inhibitors inavolisib, alpelisib, duvelisib, and copanlisib in multi-cell type tumor spheroids A high-throughput screen of multi-cell type tumor spheroids was designed to identify active combinations of targeted small molecules and PI3K pathway inhibitors. […] Compounds. […] If the clinical Cmax for an agent had not been determined, the highest concentration tested was 10 microM. […]

Before answering, review these 3 worked examples.
CC(Cn1ccc(-c2ccc(C#N)c(Cl)c2)n1)NC(=O)c1cc(C(C)O)[nH]n1 (centres undefined) + COc1c(OCCCN2CCOCC2)ccc2c3n(c(=NC(=O)c4cnc(N)nc4)nc12)CCN3    71.6%
Cn1ncc(Cl)c1-c1cc(C(=O)NC(CN)Cc2cccc(F)c2)sc1Cl (centres undefined) + COc1c(OCCCN2CCOCC2)ccc2c3n(c(=NC(=O)c4cnc(N)nc4)nc12)CCN3    68.3%
CC(C)NCC(C(=O)N1CCN(c2ncnc3c2C(C)CC3O)CC1)c1ccc(Cl)cc1 (centres undefined) + COc1c(OCCCN2CCOCC2)ccc2c3n(c(=NC(=O)c4cnc(N)nc4)nc12)CCN3    68.7%

Next molecule, please.
Kindly note the recorded viability, T/C for Cn1nccc1Nc1nccc(-c2ccn(C(CO)c3ccc(Cl)c(F)c3)c(=O)c2)n1 (centres undefined) + CC(Nc1ccc2c(c1)OCCn1cc(N3C(=O)OCC3C(F)F)nc1-2)C(N)=O , which is 68.8%

* * *

System: 624824-186-R-J2-PDC multicell spheroids, viability
ASSAY_SUMMARY: Anticancer human tumor 624824-186-R-J2-PDC cell line growth inhibition [PI3K];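 further: spheroids exposed to agents for 7 days before viability read; 100% = DMSO vehicle treated spheroids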
CONDITION_SUMMARY: second compound 1 µM; first compound 3.16 µM; active compounds read low
MEASURED_METRIC: viability, T/C (%)
Dear colleague, please return just the value in %, with no unit written.

Here are 4 molecules together with their reported answers.
CNC(=O)c1ccc(N2C(=S)N(c3ccc(C#N)c(C(F)(F)F)c3)C(=O)C2(C)C)cc1F + CC(Nc1ccc2c(c1)OCCn1cc(N3C(=O)OCC3C(F)F)nc1-2)C(N)=O    95.2
CC(Cn1ccc(-c2ccc(C#N)c(Cl)c2)n1)NC(=O)c1cc(C(C)O)[nH]n1 (stereo not given) + COc1c(OCCCN2CCOCC2)ccc2c3n(c(=NC(=O)c4cnc(N)nc4)nc12)CCN3    63.4
CNC(=O)c1ccc(N2C(=S)N(c3ccc(C#N)c(C(F)(F)F)c3)C(=O)C2(C)C)cc1F + Cc1nc(NC(=O)N2CCCC2C(N)=O)sc1-c1ccnc(C(C)(C)C(F)(F)F)c1    113
CC(C)NCC(C(=O)N1CCN(c2ncnc3c2C(C)CC3O)CC1)c1ccc(Cl)cc1 (stereo not given) + CC(Nc1ncnc2nc[nH]c12)c1cc2cccc(Cl)c2c(=O)n1-c1ccccc1    90.8

Then there is this molecule:
The reported value for CCCS(=O)(=O)Nc1ccc(F)c(C(=O)c2c[nH]c3ncc(-c4ccc(Cl)cc4)cc23)c1F + COc1c(OCCCN2CCOCC2)ccc2c3n(c(=NC(=O)c4cnc(N)nc4)nc12)CCN3 in terms of viability, T/C is 35.1

* * *

System: 624824-186-R-J2-PDC multicell spheroids, viability
ASSAY_SUMMARY: Anticancer human tumor 624824-186-R-J2-PDC cell line growth inhibition [PI3K];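 further: spheroids exposed to agents for 7 days before viability read; 100% = DMSO vehicle treated spheroids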
CONDITION_SUMMARY: second compound 3.16 µM; first compound 0.316 µM; active compounds read low
Items are presented alongside their recorded viability, T/C.

Record excerpt, results attached:
CC(Cn1ccc(-c2ccc(C#N)c(Cl)c2)n1)NC(=O)c1cc(C(C)O)[nH]n1 (centres undefined) + Cc1nc(NC(=O)N2CCCC2C(N)=O)sc1-c1ccnc(C(C)(C)C(F)(F)F)c1    89.7%
CNC(=O)c1ccc(N2C(=S)N(c3ccc(C#N)c(C(F)(F)F)c3)C(=O)C2(C)C)cc1F + Cc1nc(NC(=O)N2CCCC2C(N)=O)sc1-c1ccnc(C(C)(C)C(F)(F)F)c1    89.1%
CC1(C)CCC(CN2CCN(c3ccc(C(=O)NS(=O)(=O)c4ccc(NCC5CCOCC5)c([N+](=O)[O-])c4)c(Oc4cnc5[nH]ccc5c4)c3)CC2)=C(c2ccc(Cl)cc2)C1 + CC(Nc1ncnc2nc[nH]c12)c1cc2cccc(Cl)c2c(=O)n1-c1ccccc1    73%

Next compound, please.
Item: Cn1ncc(Cl)c1-c1cc(C(=O)NC(CN)Cc2cccc(F)c2)sc1Cl (centres undefined) + CC(Nc1ncnc2nc[nH]c12)c1cc2cccc(Cl)c2c(=O)n1-c1ccccc1 | System: 624824-186-R-J2-PDC multicell spheroids, viability | viability, T/C: 78.8%

Reference source for all entries: PubChem BioAssay AID1963975
